# System: NCI-H23 lung
# ASSAY_INFO: NCI tumour cell line growth inhibition, 48 h
TGI values for the compounds below.
The response must be a number in µM with no trailing unit.

Recorded results for 3 compounds are shown here.
Query string: // Input: CC(=O)OC1CCCn2c1nc1c2C(=O)C(C)=C(N2CC2)C1=O (centres undefined) . Output its TGI only.
Result string: 0.373

Query string: Give recorded TGI. C[C@]12CC[C@H](O)C[C@H]1CC[C@@H]1[C@@H]2CC[C@]2(C)[C@@H](C3=CC(=O)OC3)[C@@H](O)C[C@]12O
Result string: 2.47

Query string: Give a short answer stating reported TGI for OCC(O)C(O)C(O)c1nn(-c2ccc(Cl)cc2)c2nc3cc(Cl)c(Cl)cc3nc12 (centres undefined) .
Result string: 85.1

***
Query string: Using known records, supply TGI for COc1ccc(OCc2ccc3nc(-c4ccccc4)c(Cl)nc3c2)cc1
Result string: 67.9

---

# Test system: DMS 273 small cell lung
# ASSAY_INFO: NCI tumour cell line growth inhibition, 48 h
Recorded TGI values for a group of compounds are listed next.
Give a bare numeral; the unit µM is implied.

Query string: For the compound CC1(C)C(O)C[C@@H](O)[C@@]2(C)C1CC[C@]1(C)C2C[C@@H](O)[C@@H]2C([C@@]3(C)CC[C@@H](C(C)(C)O)O3)CCC21C (stereo not given in full) , report TGI.
Result string: 27.7

Attention now turns to another entry.
Query string: Output TGI of COC(=O)/C=C(\C(=O)OC)c1c2c3c(cc(OC)c(OC)c3c3ccccc13)CCN2C
Result string: 50.9

---

# Tested on: MOLT-4 leukemia
# ASSAY_INFO: NCI tumour cell line growth inhibition, 48 h; in the data active = GI50 below about 0.43 µM; inactive = the rest
Please answer using one outcome listed in t (active), f (inactive)

Query string: What was the test verdict on COc1ccc2c(c1)[nH]c(=O)c1c3cc(OC)ccc3cn21 ?
Result string: t

Query string: Dear all, I need the recorded test outcome for CCOC(=O)c1c(C)n2c(=O)cc(C)c3c(O)c(O)cc1c32 , thank you.
Result string: f

Query string: For CCN1C(=O)N(CC)C2Nn3c(s/c(=C\c4ccccc4Br)c3=O)=NC21 (stereo unspecified) , which call appears in the assay record?
Result string: f

Query string: Please state the recorded outcome for this compound: Cn1cc(C2=C(c3cn(C)c4c([N+](=O)[O-])cccc34)C(=O)NC2=O)c2ccccc21
Result string: f

Query string: I would be grateful if you could indicate the recorded call for Cc1cc(O)ccc1C1=NN(c2ccc(S(C)(=O)=O)cc2)C(=O)CC1 .
Result string: f

Query string: Can you look up the reported call for NC1CCC(Nc2nc(NCc3ccc(-c4cccs4)nc3)c3ncn(C4CCCC4)c3n2)CC1 (stereo unspecified) for me?
Result string: t

Query string: # fetch the recorded call for COc1ccc2c(c1)[n+](=O)c(C(=O)c1ccco1)c(C(F)(F)F)n2[O-] here
Result string: f

Query string: What outcome does the record of this test show for COc1ccc2c(CN3CCC(C(=O)O)CC3)cc3cc4c(cc3c2c1)OCO4 ?
Result string: f

Query string: So what was the verdict on O=C1C(=O)c2c(nc3ccc(Br)cn23)-c2ccccc21 in this test?
Result string: f

Query string: For this compound, state the assay outcome: O=C(c1ccccc1)c1ccc(Oc2ccc([N+](=O)[O-])cc2[N+](=O)[O-])cc1
Result string: f

Query string: Entry CCCCCCCCCCCCCC1=NCCN1CCO : call = ?
Result string: f

---

# Test system: NCI-H23 lung
# ASSAY_INFO: NCI tumour cell line growth inhibition, 48 h; in the data active means GI50 below about 0.43 µM; inactive means the rest
Answer with one of the outcomes active, inactive

Example entries begin here.
Query string: Tell me the recorded outcome of this test for CN(Cc1cc(Br)cc(Br)c1O)Cc1cc(Br)cc(Br)c1O .
Result string: inactive

Query string: Which result was noted for this compound in the test: C/C(=C\CCc1ccoc1)CC/C=C(\C)CCCN1CCOCC1
Result string: inactive

Query string: Any idea what this test logged for COc1ccc2c(CN3CCC(C(=O)O)CC3)cc3cc4c(cc3c2c1)OCO4 ?
Result string: inactive

Query string: Field: outcome | Entry: CCCCCCCCN(CCCCCCCC)CCCCCCNc1cc(OC)cc2cccnc12
Result string: inactive

Field: next compound
Query string: Record request — test call for COc1ccc(C(=O)COC(=O)[C@H](C[Se][Se]C[C@H](NC(=O)c2ccc(Br)cc2F)C(=O)OCC(=O)c2ccc(OC)cc2)NC(=O)c2ccc(Br)cc2F)cc1
Result string: active

---

Listed below: TGI values for each entry.
# System: MALME-3M melanoma
# ASSAY_INFO: NCI tumour cell line growth inhibition, 48 h

Study these solved cases before continuing.
Query string: Quote TGI with test system MALME-3M melanoma for Cc1ncc2c(=O)c3c(oc2n1)c1ccccc1n3Cc1ccccc1
Result string: > 100 µM

Query string: Answer briefly: TGI recorded on MALME-3M melanoma for N#Cc1c(N)[nH]c(=S)c(C#N)c1-c1ccccc1
Result string: > 100 µM

Query string: Look up and report TGI, with MALME-3M melanoma as system, for NNC(=O)CNC(=O)c1ccc(Cl)cc1Cl
Result string: > 100 µM

Query string: Find the measured TGI of COc1cc(S(=O)(=O)Nc2ccc(-c3csc(N)n3)cc2)ccc1Cl with MALME-3M melanoma as test system.
Result string: 31.4 µM

---
Query string: Specify TGI for O=C(N/N=C/c1cc(Cl)cc(Cl)c1[O-])c1ccccc1O.O=C(N/N=C/c1cc(Cl)cc(Cl)c1[O-])c1ccccc1O.[Zn+2] , system MALME-3M melanoma.
Result string: 8.56 µM

---

# Test system: HCT-15 colon
# ASSAY_INFO: NCI tumour cell line growth inhibition, 48 h
A collection of compounds and their measured TGI

// solved cases for TGI follow
Query string: Please indicate TGI recorded for NC(=S)N/N=C1\NC(=O)/C(=C/c2ccc3c(c2)OCO3)S1
Result string: 82.6 µM

Query string: Complete the entry with TGI for C=CC(C1=CC(=O)C(OC)=CC1=O)c1ccccc1 (stereo unspecified)
Result string: 32 µM

Query string: Indicate its recorded TGI; the compound in question is COc1ccc(C2CC(c3cc(C)ccc3O)=NC(N)=N2)cc1 (stereo unspecified)
Result string: > 100 µM

Query string: Quick one: give measured TGI for CCOC(=O)c1cnc2n(c1=N)[C@H]1CCCC[C@@H]1N2
Result string: > 100 µM

More entries:
Query string: // fetch TGI given entry C=C[C@@H]1C[C@]2(C(=O)OC)Cc3nc4ccccc4nc3CC(C(=O)OC)=C2O1
Result string: > 100 µM

Query string: Report TGI for CC(=O)CSc1c(-c2ccccc2)c(=O)n(-c2ccccc2)c(=S)n1-c1ccccc1
Result string: > 100 µM

---

# Test system: SN12C renal
# ASSAY_INFO: NCI tumour cell line growth inhibition, 48 h
ASSAY_ENDPOINT: log10 TGI (log10 of the value in µM)
A difference of one corresponds to tenfold TGI; all values are log10 with TGI in µM.

Consider the reported log10 TGI for these compounds:
Query string: Please indicate log10 TGI recorded for CC(=O)NC(c1nc2cc(C)c(C)cc2[nH]1)c1nc2cc(C)c(C)cc2[nH]1
Result string: 1.89

Query string: Find the measured log10 TGI of CN(C)P(=O)(Oc1ccc(CC(NC(=O)OCc2ccccc2)C(=O)OCc2ccccc2)cc1)N(C)C (centres undefined) and report it.
Result string: 1.50

Query string: Return value of log10 TGI for input CCCCCCCCCCCCCC1=NCCN1CCO , no commentary.
Result string: 0.81

Query string: Please supply the value of reported log10 TGI for the item COC(=O)[C@]12CC[C@@H](C)[C@H](C)[C@@H]1C1=CC[C@@H]3[C@@]4(C)C(C=O)=C[C@@](C)(COC(C)=O)C4=CC[C@@]3(C)[C@]1(C)CC2
Result string: 1.45

***
Query string: Fill in reported log10 TGI for this entry: CCN(CC)CCOc1ccccc1/C=C/c1noc2ccccc12
Result string: 1.39

---

Measured TGI of individual entries
# Test system: NCI-H226 lung
# ASSAY_INFO: NCI tumour cell line growth inhibition, 48 h
Respond numerically; units are µM and should not be typed.

For orientation, consider the following solved cases.
Query string: Please indicate recorded TGI of Clc1ccc2c(c1)N(CCCN1CCCC1)c1ccccc1S2 measured with NCI-H226 lung.
Result string: 48.3

Query string: State the measured TGI (NCI-H226 lung) of COc1cc(OC)c2nc(C)c3c(c2c1)NCC3
Result string: 19

Further cases:
Query string: With NCI-H226 lung as the test system, provide measured TGI for this compound: CCOc1ccc(N/C(Cl)=C(Cl)\C(=C(\Nc2ccc(OCC)cc2)n2nnc3ccccc32)[N+](=O)[O-])cc1
Result string: 60.5

Query string: Provide TGI, tested on NCI-H226 lung, for O=C1NC(=O)C(=C/C=C/c2ccccc2)C(=O)N1 .
Result string: 7.25

Ref: PubChem BioAssay (NCI)
